# Assay Explanation: Figure 6
Where a SMILES comes first, the peptide text is derived from it. Bridges are numbered along the chain shown (N, C = ends). [ ]: non-standard residue; d: D form. R8 = C=CCCCCCC[C@@](C)(N)C(=O)O; S5 = C=CCCC[C@](C)(N)C(=O)O; Nle = CCCC[C@H](N)C(=O)O; Aib = CC(C)(N)C(=O)O
Overview of recorded MRT for various compounds
Assay Readout: MRT

{"Compound": "CCCC[C@H](NC(C)=O)C(=O)N[C@@H](CC(=O)O)C(=O)N[C@H](C(=O)N[C@@H](CC(N)=O)C(=O)N1CCC[C@H]1C(=O)N[C@H](C(=O)N[C@@H](CC(C)C)C(=O)N[C@@H](CC(C)C)C(=O)N[C@@H](Cc1ccccc1)C(=O)N[C@@H](CC(C)C)C(=O)N[C@@H](CCCCN)C(=O)N[C@H](C(=O)N1CCC[C@H]1C(=O)N[C@@H](C)C(=O)N[C@@H](CCC(N)=O)C(N)=O)C(C)C)[C@@H](C)O)C(C)C", "Recorded Result": "7.8 min"}
{"Compound": "CCCC[C@H](NC(C)=O)C(=O)N[C@@H](CC(=O)O)C(=O)N[C@H](C(=O)N[C@@H](CC(N)=O)C(=O)NC(C)(C)C(=O)N[C@H](C(=O)N[C@]1(C)CCCCCCC=CCCC[C@@](C)(C(=O)N[C@@H](CCCNC(=N)N)C(N)=O)NC(=O)[C@H](C)NC(=O)[C@H](C(C)C)NC(=O)[C@H](CCCCN)NC(=O)[C@H](CC(C)C)NC(=O)[C@H](Cc2ccccc2)NC(=O)[C@H](CC(C)C)NC1=O)[C@@H](C)O)C(C)C [SP-15, Ac-NlcDVNAibT$r8LFLKVA$R-NH2] (Ac-[Nle]DVN[Aib]T[R8]LFLKVA[S5]R-NH2; staple 7-14)", "Recorded Result": "115 min"}
{"Compound": "CCCC[C@H](NC(C)=O)C(=O)N[C@@H](CC(=O)O)C(=O)N[C@H](C(=O)N[C@@H](CC(N)=O)C(=O)NC(C)(C)C(=O)N[C@H](C(=O)N[C@@H](CC(C)C)C(=O)N[C@@]1(C)CCCC=CCCC[C@@](C)(C(=O)N[C@@H](C)C(=O)N[C@@H](C)C(=O)N[C@@H](CCC(N)=O)C(N)=O)NC(=O)[C@H](CCCCN)NC(=O)[C@H](CC(C)C)NC(=O)[C@H](Cc2ccccc2)NC1=O)[C@@H](C)O)C(C)C [SP-9, Ac-NleDVNAibTL$FLK$AAQ-NH2] (Ac-[Nle]DVN[Aib]TL[S5]FLK[S5]AAQ-NH2; staple 8-12)", "Recorded Result": "84.6 min"}
{"Compound": "CCCC[C@H](NC(C)=O)C(=O)N[C@@H](CC(=O)O)C(=O)N[C@H](C(=O)N[C@@H](CC(N)=O)C(=O)N1CCC[C@H]1C(=O)N[C@H](C(=O)N[C@@H](CC(C)C)C(=O)N[C@@H](CC(C)C)C(=O)N[C@@H](Cc1ccccc1)C(=O)N[C@@]1(C)CCCC=CCCC[C@@](C)(C(=O)N[C@@H](CCCNC(=N)N)C(N)=O)NC(=O)[C@H](C)NC(=O)[C@H](C(C)C)NC(=O)[C@H](CCCCN)NC1=O)[C@@H](C)O)C(C)C [SP-11, Ac-NleDVNPTLLF$KVA$R-NH2] (Ac-[Nle]DVNPTLLF[S5]KVA[S5]R-NH2; staple 10-14)", "Recorded Result": "31.2 min"}
{"Compound": "CCCC[C@H](NC(C)=O)C(=O)N[C@@H](CC(=O)O)C(=O)N[C@H](C(=O)N[C@@H](CC(N)=O)C(=O)N1CCC[C@H]1C(=O)N[C@H](C(=O)N[C@@H](CC(C)C)C(=O)N[C@@]1(C)CCCC=CCCC[C@@](C)(C(=O)N[C@@H](C)C(=O)N[C@@H](C)C(=O)N[C@@H](CCC(N)=O)C(N)=O)NC(=O)[C@H](CCCCN)NC(=O)[C@H](CC(C)C)NC(=O)[C@H](Cc2ccccc2)NC1=O)[C@@H](C)O)C(C)C [SP-10, Ac-NleDVNPTL$FLK$AAQ-NH2] (Ac-[Nle]DVNPTL[S5]FLK[S5]AAQ-NH2; staple 8-12)", "Recorded Result": "33 min"}

Values from patent US10022422B2
